# experimental.protocol: Clearance in cynomolgus monkey at 1 mg/kg, iv
# Format: ADME, organism-based, Macaca fascicularis
# run.conditions: in vivo
parameter.measured: clearance (mL/min/kg)
Give bare numbers, in mL/min/kg.

Requested read-out: clearance. Entry: "COc1cc(-n2cnc3cc(-c4ccc(Cl)cc4)sc3c2=O)ccc1OCC1(O)CC(F)(F)C1"
1.7

====

# experimental.protocol: Clearance in dog at 1 mg/kg, iv
# Type: ADME, organism-based, Canis lupus familiaris
# run.conditions: in vivo
parameter.measured: clearance (mL/min/kg)
Numbers only, in mL/min/kg.

Requested read-out: clearance. Entry: "COc1cc(-n2cnc3cc(-c4ccc(Cl)cc4)sc3c2=O)ccc1OCC1(O)CC(F)(F)C1"
6.9

====

# experimental.protocol: Plasma concentration in DIO Sprague-Dawley rat assessed as parent compound level at 0.3 mg/kg, po for 28 days measured after 2 hrs
# Assay type: ADME, organism-based
parameter.measured: concentration at 2 h (nM)
Numbers only, in nM.

Requested read-out: concentration at 2 h. Entry: "COc1cc(-n2cnc3cc(-c4ccc(Cl)cc4)sc3c2=O)ccc1OCC1(OP(=O)(O)O)CC(F)(F)C1"
2000
